Entry source: ChEMBL document CHEMBL1201862

# Tested on: EKVX
# method summary: NCI tumour cell line growth inhibition, 48 h
Calls of active or inactive are those of the source. No stated cut-off is given here; in the data, active = GI50 up to about 1.1 µM and inactive = higher.
Answer each item with its documented GI50.

Guide cases for GI50, answers given:
compound=O=C(Cn1c(C(=O)/C=C/c2ccc(Cl)c(Cl)c2)nc2ccccc21)c1ccccc1 result_value="14.4 µM (inactive)"
compound="Cc1cc2c(c(/C=N/c3ccccc3O)c1)OC1(C=C2)Oc2ccccc2C(=O)N1C (stereo unspecified)" result_value="14 µM (inactive)"
compound=COc1cc(/C=C2/CCCc3ccccc3C2=O)cc(OC)c1OC result_value="17.6 µM (inactive)"
compound=O=[N+]([O-])c1ccc(-c2csc(=[N+]3CCCCC3)s2)cc1 result_value="18 µM (inactive)"

// for each compound below, give its GI50
1. Cc1ccccc1C(O)(c1nccn1C)c1nccn1C
2. Cc1ccc2[nH]c3c(c2c1)CCC/C3=N/N=C(N)N
3. CCOC(CI)O[C@@H]1C=C[C@H](OC(C)=O)C1 (stereo partly specified)
4. Cc1nc2ccccc2c(=O)n1CC(=O)O
5. CC1=NN(c2cccc(Cl)c2)C2(SCC(=O)N2c2nc3ccccc3s2)/C1=C\c1ccc(N(C)C)cc1 (stereo unspecified)

Ans:
1: > 100 µM (inactive); 2: 1.92 µM (inactive); 3: > 100 µM (inactive); 4: > 100 µM (inactive); 5: > 100 µM (inactive)

// for each compound below, give its GI50
1. COC(=O)C1(Cc2ccccc2)Cc2ccccc2C1O (stereo unspecified)
2. CN/N=C(/CC(=O)c1sc(NNC(C)=O)nc1C)C(=O)Nc1ccc(OC)cc1OC
3. COC1C2C=CC(C2)[C@H]1[N+](=O)[O-] (stereo partly specified)
4. Cc1ccc(S(=O)(=O)CN2C(=O)C(c3ccccc3)(c3ccccc3)C23OC(c2ccc(Cl)cc2)=CC3=O)cc1 (stereo unspecified)
5. C[N+](C)(C)CC(=O)N/N=C(\C(=O)NC1=C(Cl)C(=O)c2ccccc2C1=O)C(C#N)c1csc(-c2ccc([N+](=O)[O-])cc2)n1 (stereo unspecified)

Ans:
1. 65 µM (inactive)
2. 59.7 µM (inactive)
3. > 100 µM (inactive)
4. > 10 µM (inactive)
5. 48.2 µM (inactive)

// for each compound below, give its GI50
1. CCOC(=O)C(NO)C(Sc1ccccc1)c1ccc(OC)cc1 (stereo unspecified)
2. O=[N+]([O-])c1ccc(NSc2ccccc2)cc1
3. COc1ccc2[nH]cc(CCNC(C)=O)c2c1
4. Cc1cccc(C)c1NC(=O)CCc1n[nH]c(=S)o1
5. O=C(O)c1c[nH]c2c(ccc3ncccc32)c1=O
6. O=C(O)CCC(NC(=O)c1ccc(Oc2nc3ccccc3nc2-c2ccccc2)cc1)C(=O)O (stereo unspecified)
7. CC(C)CC1c2[nH]c3ccccc3c2C[C@H]2C(=O)NC(CCC(=O)OC(C)(C)C)C(=O)N12 (stereo partly specified)

Ans:
1: > 100 µM (inactive); 2: 30 µM (inactive); 3: > 100 µM (inactive); 4: > 100 µM (inactive); 5: > 100 µM (inactive); 6: > 100 µM (inactive); 7: 35.2 µM (inactive)

---

Answer each item with its documented GI50.
# Test system: RPMI-8226
# method summary: NCI tumour cell line growth inhibition, 48 h
The source made the active and inactive calls. No stated cut-off is given here; in the data, active = GI50 up to about 1.1 µM and inactive = higher.

Guide cases for GI50, answers given:
molecule=Cc1nc2ccccc2c(=O)n1CC(=O)O assayed_system=RPMI-8226 assay_metric=GI50 result_value="> 100 µM (inactive)"
molecule="O=C1C2C3SC(c4cc5ccccc5cc43)C2C(=O)N1c1ccccc1 (stereo unspecified)" assayed_system=RPMI-8226 assay_metric=GI50 result_value="> 100 µM (inactive)"
molecule=CSc1ncc2c(C#N)c3sc4ccccc4n3c(=O)c2n1 assayed_system=RPMI-8226 assay_metric=GI50 result_value="> 100 µM (inactive)"
molecule="O=C1OCC=C1COC1OC(CO)C(O)C(O)C1O (stereo unspecified)" assayed_system=RPMI-8226 assay_metric=GI50 result_value="> 100 µM (inactive)"

// for each molecule below, give its GI50
1. O=[N+]([O-])c1cc(I)cc(/C=N/NS(=O)(=O)c2ccc(F)cc2)c1O
2. COC(=O)N[C@H](C(=O)O)C(C)O[Si](C)(C)C(C)(C)C (stereo partly specified)
3. O=C(Oc1cncc(Cl)c1)c1cc2ccccc2sc1=O
4. COc1ccc(C(=O)C(C(=O)C(=O)Nc2ccc(Cl)c(Cl)c2)c2ccc(OC)cc2)cc1 (stereo unspecified)
5. O=C(O)C1(c2ccccc2)CCCNCC1 (stereo unspecified)
6. Oc1ccc(-c2nc(-c3cccnc3)c(-c3ccc(F)cc3)[nH]2)cc1

Ans:
1: 22.1 µM (inactive); 2: > 100 µM (inactive); 3: 21.1 µM (inactive); 4: > 100 µM (inactive); 5: > 100 µM (inactive); 6: 10.2 µM (inactive)

For this molecule ( O=C1CC(CC(=O)c2ccc(Br)cc2)C(O)=C1C(=O)c1ccc(Br)cc1 (stereo unspecified) ), measured GI50 is > 100 µM (inactive)
